- TARGET_OR_SYSTEM: UniProtKB Q5UEA2
- ASSAY_DETAILS: FRET peptide cleavage assay
- Assay type: biochemical
MEASURE_NAME: IC50 (µM)
Express your answer in µM, writing the number without its unit.

# annotated cases, reported IC50 shown
COMPOUND	MEASUREMENT_UNITS	IC50
O=C(/C=C/c1ccccc1)N[C@@H](Cc1ccccc1)C(=O)N[C@@H](C[C@@H]1CCNC1=O)C(=O)C(=O)NCc1ccccc1 [11a]	µM	6.56
O=C(/C=C/c1ccccc1)N[C@@H](CC1CCC1)C(=O)N[C@@H](C[C@@H]1CCNC1=O)C(=O)C(=O)NCc1ccccc1 [11t]	µM	4.78

Consider the record given below.
UniProtKB Q5UEA2 / IC50 / CC(C)C[C@H](NC(=O)/C=C/c1ccccc1)C(=O)N[C@@H](C[C@@H]1CCNC1=O)C(=O)C(=O)NCc1ccccc1 [11n] : value?
3.82
